// data source = the supplement of paper PMC6555819

- System: PXR:RXRa (NR concentration 270 nM, RXRa partner concentration 90 nM)
- experimentNotes: PBM binding z-score (relative to random genomic background probes); higher = stronger binding; sequences stand for … in GC…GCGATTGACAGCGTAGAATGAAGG
measuredEndpoint: PBM binding z-score

>  <biosequence>
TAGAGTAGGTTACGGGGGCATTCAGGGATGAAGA

>  <result>
3.17

$$$$
>  <biosequence>
GATACAGGGTCAAGGCCAGAGTACGCGTATTGAT

>  <result>
3.88

$$$$
>  <biosequence>
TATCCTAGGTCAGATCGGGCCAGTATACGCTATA

>  <result>
1.82

$$$$
>  <biosequence>
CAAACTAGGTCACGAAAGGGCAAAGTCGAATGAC

>  <result>
5.85

$$$$
>  <biosequence>
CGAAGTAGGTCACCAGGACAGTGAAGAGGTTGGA

>  <result>
1.71

$$$$
>  <biosequence>
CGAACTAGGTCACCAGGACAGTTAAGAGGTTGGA

>  <result>
1.49

$$$$
>  <biosequence>
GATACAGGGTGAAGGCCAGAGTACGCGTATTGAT

>  <result>
-0.324

$$$$
>  <biosequence>
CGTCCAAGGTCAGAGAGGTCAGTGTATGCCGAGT

>  <result>
5.92

$$$$
>  <biosequence>
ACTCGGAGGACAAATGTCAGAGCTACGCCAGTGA

>  <result>
-0.536

$$$$
>  <biosequence>
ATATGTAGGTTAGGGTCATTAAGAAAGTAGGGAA

>  <result>
3.9

$$$$
>  <biosequence>
CAGACTAGGTCAAAGGTCAAAGTCGAGCCAACCA

>  <result>
7.16

$$$$
>  <biosequence>
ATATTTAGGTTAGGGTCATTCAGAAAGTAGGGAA

>  <result>
4.34

$$$$

====

Measured PBM binding z-score by item
- System: PPARg:RXRa 30nM:10nM, anti-RXR (NR concentration 30 nM, RXRa partner concentration 10 nM)
- experimentNotes: PBM binding z-score (relative to random genomic background probes); higher = stronger binding; sequences stand for … in GC…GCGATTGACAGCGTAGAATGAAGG

>  <biosequence>
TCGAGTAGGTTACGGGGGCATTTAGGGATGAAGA

>  <PBM binding z-score>
2.96

$$$$
>  <biosequence>
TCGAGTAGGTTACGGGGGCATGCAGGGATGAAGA

>  <PBM binding z-score>
3.6

$$$$
>  <biosequence>
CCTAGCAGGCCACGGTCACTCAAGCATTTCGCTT

>  <PBM binding z-score>
-0.777

$$$$
>  <biosequence>
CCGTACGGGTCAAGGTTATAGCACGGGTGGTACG

>  <PBM binding z-score>
1.2

$$$$
>  <biosequence>
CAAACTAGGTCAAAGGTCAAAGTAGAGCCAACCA

>  <PBM binding z-score>
13

$$$$
>  <biosequence>
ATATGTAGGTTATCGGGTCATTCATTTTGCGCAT

>  <PBM binding z-score>
3.77

$$$$
>  <biosequence>
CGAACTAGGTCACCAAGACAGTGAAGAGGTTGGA

>  <PBM binding z-score>
4.53

$$$$
>  <biosequence>
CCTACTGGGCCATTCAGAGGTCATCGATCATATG

>  <PBM binding z-score>
1.49

$$$$
>  <biosequence>
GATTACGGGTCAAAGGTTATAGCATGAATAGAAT

>  <PBM binding z-score>
10.5

$$$$
>  <biosequence>
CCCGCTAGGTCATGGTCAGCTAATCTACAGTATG

>  <PBM binding z-score>
0.967

$$$$
>  <biosequence>
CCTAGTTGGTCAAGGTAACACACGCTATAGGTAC

>  <PBM binding z-score>
0.57

$$$$
>  <biosequence>
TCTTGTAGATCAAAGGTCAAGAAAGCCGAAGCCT

>  <PBM binding z-score>
8.45

$$$$

====

- System: PPARg:RXRa 30nM:10nM, anti-RXR (NR concentration 30 nM, RXRa partner concentration 10 nM)
- experimentNotes: PBM binding z-score (relative to random genomic background probes); higher = stronger binding; sequences stand for … in GC…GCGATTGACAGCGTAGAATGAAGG

>  <biosequence>
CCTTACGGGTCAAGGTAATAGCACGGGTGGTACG

>  <PBM binding z-score>
1.46

$$$$
>  <biosequence>
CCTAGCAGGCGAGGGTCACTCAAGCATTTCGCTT

>  <PBM binding z-score>
-0.298

$$$$
>  <biosequence>
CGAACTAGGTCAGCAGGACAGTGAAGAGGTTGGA

>  <PBM binding z-score>
2.12

$$$$
>  <biosequence>
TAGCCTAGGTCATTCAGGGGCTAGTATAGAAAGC

>  <PBM binding z-score>
0.575

$$$$
>  <biosequence>
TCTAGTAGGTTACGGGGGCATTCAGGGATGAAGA

>  <PBM binding z-score>
5.71

$$$$
>  <biosequence>
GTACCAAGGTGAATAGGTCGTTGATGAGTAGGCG

>  <PBM binding z-score>
0.486

$$$$
>  <biosequence>
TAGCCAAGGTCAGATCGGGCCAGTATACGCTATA

>  <PBM binding z-score>
0.514

$$$$
>  <biosequence>
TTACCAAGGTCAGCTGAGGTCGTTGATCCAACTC

>  <PBM binding z-score>
1.27

$$$$
>  <biosequence>
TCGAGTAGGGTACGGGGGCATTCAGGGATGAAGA

>  <PBM binding z-score>
3.19

$$$$
>  <biosequence>
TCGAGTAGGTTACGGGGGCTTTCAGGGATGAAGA

>  <PBM binding z-score>
2.05

$$$$
>  <biosequence>
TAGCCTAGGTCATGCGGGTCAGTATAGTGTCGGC

>  <PBM binding z-score>
0.354

$$$$
>  <biosequence>
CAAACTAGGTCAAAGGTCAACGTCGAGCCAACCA

>  <PBM binding z-score>
13.9

$$$$

====

- Tested on: VDR:RXRa (NR concentration 270 nM, RXRa partner concentration 90 nM)
- experimentNotes: PBM binding z-score (relative to random genomic background probes); higher = stronger binding; sequences stand for … in GC…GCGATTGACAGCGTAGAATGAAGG
measuredEndpoint: PBM binding z-score

>  <biosequence>
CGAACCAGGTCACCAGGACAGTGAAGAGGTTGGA

>  <result>
3.17

$$$$
>  <biosequence>
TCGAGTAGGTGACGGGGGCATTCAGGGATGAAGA

>  <result>
3.36

$$$$
>  <biosequence>
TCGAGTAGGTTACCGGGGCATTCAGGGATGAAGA

>  <result>
0.816

$$$$
>  <biosequence>
ATATGTAGGTTACGGTCATTCAGAAAGTAGGGAA

>  <result>
1.54

$$$$
>  <biosequence>
CGTCCAAGGGCAATGCTAGGTCAGTGAAAGCATT

>  <result>
0.893

$$$$
>  <biosequence>
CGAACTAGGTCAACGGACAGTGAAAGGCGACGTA

>  <result>
1.12

$$$$
>  <biosequence>
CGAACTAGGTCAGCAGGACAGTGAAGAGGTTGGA

>  <result>
0.428

$$$$
>  <biosequence>
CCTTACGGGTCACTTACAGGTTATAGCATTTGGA

>  <result>
3.6

$$$$
>  <biosequence>
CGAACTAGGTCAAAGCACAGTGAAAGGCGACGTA

>  <result>
1.2

$$$$
>  <biosequence>
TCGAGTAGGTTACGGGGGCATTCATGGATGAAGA

>  <result>
3.71

$$$$
>  <biosequence>
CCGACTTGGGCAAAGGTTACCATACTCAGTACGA

>  <result>
0.927

$$$$
>  <biosequence>
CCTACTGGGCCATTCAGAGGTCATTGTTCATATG

>  <result>
3.9

$$$$

====

- Test system: PPARg:RXRa DBDmut IVT, anti-RXR (DBD mutation: RXRa K156A/R161A, NR concentration 270 nM, RXRa partner concentration 90 nM)
- experimentNotes: PBM binding z-score (relative to random genomic background probes); higher = stronger binding; sequences stand for … in GC…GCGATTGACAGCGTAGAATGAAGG
Classification field: satisfied = PBM binding z-score at or over 4; not satisfied = PBM binding z-score under 4.

>  <biosequence>
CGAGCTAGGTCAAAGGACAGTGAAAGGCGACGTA

>  <cat>
not satisfied

$$$$
>  <biosequence>
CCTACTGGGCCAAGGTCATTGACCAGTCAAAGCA

>  <cat>
not satisfied

$$$$
>  <biosequence>
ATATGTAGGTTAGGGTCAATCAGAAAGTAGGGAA

>  <cat>
satisfied

$$$$
>  <biosequence>
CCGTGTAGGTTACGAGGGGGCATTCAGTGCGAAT

>  <cat>
not satisfied

$$$$
>  <biosequence>
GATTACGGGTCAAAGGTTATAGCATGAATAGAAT

>  <cat>
satisfied

$$$$
>  <biosequence>
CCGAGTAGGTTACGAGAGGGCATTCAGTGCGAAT

>  <cat>
satisfied

$$$$
>  <biosequence>
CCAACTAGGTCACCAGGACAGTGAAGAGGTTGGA

>  <cat>
satisfied

$$$$
>  <biosequence>
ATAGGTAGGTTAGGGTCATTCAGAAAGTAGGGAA

>  <cat>
not satisfied

$$$$
>  <biosequence>
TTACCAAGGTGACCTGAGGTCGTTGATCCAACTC

>  <cat>
not satisfied

$$$$
>  <biosequence>
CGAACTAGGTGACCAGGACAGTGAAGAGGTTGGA

>  <cat>
satisfied

$$$$
>  <biosequence>
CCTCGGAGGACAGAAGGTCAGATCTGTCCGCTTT

>  <cat>
not satisfied

$$$$
>  <biosequence>
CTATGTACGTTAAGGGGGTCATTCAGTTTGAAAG

>  <cat>
not satisfied

$$$$
